System: hypoxia induced ID8 mouse ovarian epithelial cell line
METHOD_SUMMARY: MTT assay, hypoxia induced ovarian cancer cell line ID8
Type: cell-based
EXPERIMENTAL_CONTEXT: Mus musculus, Epithelial cell, 72 h, read-out: IC50 (μM), viability of Ovarian cancer cell lines ID8, hypoxia induced ID8, MTT, 72 h, n = 3
METRIC: IC50 (µM)

Cc1ccc(C(C)C)c(OCC(=O)N2CCOCC2)c1 [Compound 1i]
11.2

1. O=C(CNc1ccccn1)N1CCOCC1 [Compound 1c]
2. O=C(CN1CCOCC1)N1CCOCC1 [Compound 1a, 1,2-di (morpholin-4-yl) ethanone]
3. O=C(CNc1ccc(F)cc1)N1CCOCC1 [Compound 1h]
4. O=C(CNCc1ccccc1)N1CCOCC1 [Compound 1n]
Sort the molecules on IC50; start with the lowest figure. # output: labels, in the requested order
3, 1, 2, 4
(3: 9.4 µM, 1: 15.7 µM, 2: 23.9 µM, 4: 47.9 µM)
